target: T1, IL-1beta (UniProt P01584 117-269); assay: Biacore
T1 construct: also called IL-1β
Measured Endpoint: binding result

[[record]]
binder = "XPA23 Fab, heavy chain F33R (Fab, V domains shown) VH: EVQLLESGGGLVQPGGSLRLSCAASGFTFSKYRMFWVRQAPGKGLEWVSVISPSGGMTRYADSVKGRFTISRDNSKNTLYLQMNSLRAEDTAVYYCARVGYGGNSDYWGQGTLVTVSS VL: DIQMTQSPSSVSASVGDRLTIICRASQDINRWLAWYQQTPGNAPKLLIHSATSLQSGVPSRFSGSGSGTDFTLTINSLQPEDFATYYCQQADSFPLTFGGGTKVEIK"
measured_endpoint = "binding result"
result = "no binding"

[[record]]
binder = "XPA23 Fab, heavy chain N104W (Fab, V domains shown) VH: EVQLLESGGGLVQPGGSLRLSCAASGFTFSKYFMFWVRQAPGKGLEWVSVISPSGGMTRYADSVKGRFTISRDNSKNTLYLQMNSLRAEDTAVYYCARVGYGGWSDYWGQGTLVTVSS VL: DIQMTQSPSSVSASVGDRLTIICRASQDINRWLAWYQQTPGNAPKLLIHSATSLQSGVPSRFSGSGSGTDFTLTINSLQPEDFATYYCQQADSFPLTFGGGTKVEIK"
measured_endpoint = "binding result"
result = "no binding"


Ref: patent US20110118131A1
